Data origin: patent US11254676B2

quantity: IC50 (nM)
Use nM as the unit, but write only the number.

IC50 value, target or system LSD1 (Homo sapiens (Human)), for O=C(O)c1ccc(CN2CCC(CN[C@@H]3C[C@H]3c3ccccc3)CC2)cc1 [Control, GSK2879552, reference compound] : 311
